- Tgt: hNaV1.7 channel (Homo sapiens, UniProt Q15858)
- Construct: expressed in transfected cells
- Sequence (Q15858 whole entry): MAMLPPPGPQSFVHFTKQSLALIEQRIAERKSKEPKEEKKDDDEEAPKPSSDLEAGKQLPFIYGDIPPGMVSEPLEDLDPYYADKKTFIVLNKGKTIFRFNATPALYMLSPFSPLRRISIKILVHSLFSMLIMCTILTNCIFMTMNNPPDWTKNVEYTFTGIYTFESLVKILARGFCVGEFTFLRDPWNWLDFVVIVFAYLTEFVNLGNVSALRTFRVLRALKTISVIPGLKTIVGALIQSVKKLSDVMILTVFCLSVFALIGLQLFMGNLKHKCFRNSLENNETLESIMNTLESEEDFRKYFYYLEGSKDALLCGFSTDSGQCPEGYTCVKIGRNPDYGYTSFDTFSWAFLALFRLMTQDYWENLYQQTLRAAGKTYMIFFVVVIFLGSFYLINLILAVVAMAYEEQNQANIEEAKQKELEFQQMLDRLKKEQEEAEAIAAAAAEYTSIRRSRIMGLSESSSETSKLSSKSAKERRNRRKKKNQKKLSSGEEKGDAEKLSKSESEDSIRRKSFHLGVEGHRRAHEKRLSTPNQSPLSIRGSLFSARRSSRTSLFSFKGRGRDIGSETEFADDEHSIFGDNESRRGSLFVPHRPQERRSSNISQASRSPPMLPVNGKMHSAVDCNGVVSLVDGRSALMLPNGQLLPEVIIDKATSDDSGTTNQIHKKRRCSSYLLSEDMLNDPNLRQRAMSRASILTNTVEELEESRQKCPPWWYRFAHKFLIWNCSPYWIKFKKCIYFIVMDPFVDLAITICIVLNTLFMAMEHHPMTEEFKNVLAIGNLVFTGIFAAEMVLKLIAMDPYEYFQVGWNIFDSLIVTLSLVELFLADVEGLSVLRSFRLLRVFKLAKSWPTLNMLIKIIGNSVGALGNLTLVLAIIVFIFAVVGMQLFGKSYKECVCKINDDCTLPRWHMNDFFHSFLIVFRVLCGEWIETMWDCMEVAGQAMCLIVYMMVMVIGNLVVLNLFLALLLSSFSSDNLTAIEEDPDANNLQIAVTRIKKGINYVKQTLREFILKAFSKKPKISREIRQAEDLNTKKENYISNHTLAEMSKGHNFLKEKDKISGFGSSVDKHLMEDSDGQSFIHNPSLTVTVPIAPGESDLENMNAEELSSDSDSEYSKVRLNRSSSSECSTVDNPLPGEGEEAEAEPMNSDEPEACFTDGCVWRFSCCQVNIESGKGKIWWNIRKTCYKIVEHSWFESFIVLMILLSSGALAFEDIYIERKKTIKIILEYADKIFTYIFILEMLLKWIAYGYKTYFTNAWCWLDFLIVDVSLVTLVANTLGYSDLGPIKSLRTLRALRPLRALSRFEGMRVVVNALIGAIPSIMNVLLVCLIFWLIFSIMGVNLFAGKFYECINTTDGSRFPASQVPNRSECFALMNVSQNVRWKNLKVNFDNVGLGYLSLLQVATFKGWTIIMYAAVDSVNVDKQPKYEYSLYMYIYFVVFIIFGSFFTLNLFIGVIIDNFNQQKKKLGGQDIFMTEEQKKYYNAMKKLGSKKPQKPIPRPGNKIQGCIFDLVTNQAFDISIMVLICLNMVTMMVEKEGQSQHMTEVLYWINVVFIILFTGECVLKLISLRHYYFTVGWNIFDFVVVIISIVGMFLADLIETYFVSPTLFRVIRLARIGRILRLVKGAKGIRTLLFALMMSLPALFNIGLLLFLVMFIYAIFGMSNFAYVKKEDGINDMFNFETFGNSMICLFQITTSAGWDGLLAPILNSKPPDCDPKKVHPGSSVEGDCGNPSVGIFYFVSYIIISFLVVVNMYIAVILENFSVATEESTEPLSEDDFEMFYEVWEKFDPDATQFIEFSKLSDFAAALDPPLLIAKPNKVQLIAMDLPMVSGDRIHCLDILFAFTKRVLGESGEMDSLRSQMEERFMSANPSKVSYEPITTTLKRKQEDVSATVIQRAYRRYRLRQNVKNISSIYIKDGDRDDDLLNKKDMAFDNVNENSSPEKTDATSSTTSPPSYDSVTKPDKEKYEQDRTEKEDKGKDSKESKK
- Assay notes: Whole-cell patch-clamp electrophysiology on hNaV1.7 stably expressed in HEK-293 cells
- Type: cell-based
- Conditions: NaV1.7 inactivated state, -70 mV holding potential; mean; read-out: inactivated-state IC50
Experimental endpoint: IC50 (nM)
State just the number; it will be interpreted in nM.

Value lookup for IC50; key = CC(C)=CCOc1ccc(CCC(C)NCC(O)CCC2CC2)cc1 (stereo not shown)
2300
